- SYSTEM_TESTED: C-Raf kinase (SEQ ID NO: 2) (Homo sapiens, UniProt P04049, Y340D/Y341D)
- Construct: C-Raf residues 306-end; Y340D, Y341D with; GST (N); purchased Sigma
- Sequence (P04049 307-648 Y340D/Y341D): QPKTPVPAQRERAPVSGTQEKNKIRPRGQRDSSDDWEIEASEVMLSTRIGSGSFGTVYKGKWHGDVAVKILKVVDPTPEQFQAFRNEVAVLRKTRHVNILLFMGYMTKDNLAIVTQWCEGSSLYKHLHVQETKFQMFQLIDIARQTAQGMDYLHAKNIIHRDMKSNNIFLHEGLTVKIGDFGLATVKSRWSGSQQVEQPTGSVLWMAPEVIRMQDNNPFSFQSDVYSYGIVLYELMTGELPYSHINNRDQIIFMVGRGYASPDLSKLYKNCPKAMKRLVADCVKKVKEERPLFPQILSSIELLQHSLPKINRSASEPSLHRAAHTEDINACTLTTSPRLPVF
- ASSAY_NAME: Biochemical Assay for C-Raf (coupled pyruvate kinase/lactate dehydrogenase assay)
- PARTICULARS: 1 mM ATP; read-out: CRAF (inhibition of biochemical activity, IC50)
PROPERTY_MEASURED: IC50

[ask] Item under review: "CC(=O)Nc1cc(-c2cc(-c3cc(NC(=O)c4ccc(C(F)F)nc4)c(F)cc3C)ccn2)ccn1" . Reported IC50?
[reply] < 100 nM

[ask] Next: "Cc1ccc(NC(=O)c2cc(C(F)(F)F)cnn2)cc1-c1ccnc(-c2ccnc(NC(=O)C3CCC3)c2)c1"
[reply] < 100 nM

[ask] Next: "Cc1ccc(NC(=O)c2cc(C#N)cnn2)cc1-c1cc(N[C@H](C)CO)nc(-c2ccnc(NC(=O)C3CC3)c2)c1"
[reply] 500 to 1000 nM

[ask] Next: "Cc1ccc(NC(=O)c2cc(C)c(C)nn2)cc1-c1ccnc(-c2ccnc(NC(=O)C3CC3)c2)c1"
[reply] < 100 nM

[ask] Next: "COC(=O)Nc1cc(-c2nccc(-c3cc(NC(=O)c4ccc(C(F)(F)F)nc4)ccc3C)n2)ccn1"
[reply] < 100 nM

[ask] Next: Cc1ccc(NC(=O)c2cc(C(F)(F)F)cnn2)cc1-c1ccnc(-c2ccnc(NC(=O)C3CN(C)CC3(F)F)c2)c1 (stereo not shown)
[reply] < 100 nM

[ask] Next: "Cc1ccc(NC(=O)c2cc(C3CC3)cnn2)cc1-c1ccnc(-c2ccnc(NC(=O)C3CC3)c2)c1"
[reply] < 100 nM
